- MEASUREMENT PROTOCOL: Oral bioavailability in BDF1 mouse at 25 mg/kg after 2 to 24 hrs by HPLC analysis
- Type: ADME, organism-based
- PARTICULARS: in vivo
MEASURED PROPERTY: bioavailability (%)

mol_smiles=Oc1ncc(F)cn1 measured_property=bioavailability observed=100

---

- MEASUREMENT PROTOCOL: Oral bioavailability in human
- Assay type: ADME, organism-based
- PARTICULARS: in vivo
MEASURED PROPERTY: bioavailability (%)

mol_smiles=Nc1nc2c(ncn2CCC(CO)CO)c(=O)[nH]1 observed=77

---

List of K values.
- MEASURED TARGET: Aldehyde oxidase (Homo sapiens, UniProt Q06278)
- Sequence (Q06278 whole entry): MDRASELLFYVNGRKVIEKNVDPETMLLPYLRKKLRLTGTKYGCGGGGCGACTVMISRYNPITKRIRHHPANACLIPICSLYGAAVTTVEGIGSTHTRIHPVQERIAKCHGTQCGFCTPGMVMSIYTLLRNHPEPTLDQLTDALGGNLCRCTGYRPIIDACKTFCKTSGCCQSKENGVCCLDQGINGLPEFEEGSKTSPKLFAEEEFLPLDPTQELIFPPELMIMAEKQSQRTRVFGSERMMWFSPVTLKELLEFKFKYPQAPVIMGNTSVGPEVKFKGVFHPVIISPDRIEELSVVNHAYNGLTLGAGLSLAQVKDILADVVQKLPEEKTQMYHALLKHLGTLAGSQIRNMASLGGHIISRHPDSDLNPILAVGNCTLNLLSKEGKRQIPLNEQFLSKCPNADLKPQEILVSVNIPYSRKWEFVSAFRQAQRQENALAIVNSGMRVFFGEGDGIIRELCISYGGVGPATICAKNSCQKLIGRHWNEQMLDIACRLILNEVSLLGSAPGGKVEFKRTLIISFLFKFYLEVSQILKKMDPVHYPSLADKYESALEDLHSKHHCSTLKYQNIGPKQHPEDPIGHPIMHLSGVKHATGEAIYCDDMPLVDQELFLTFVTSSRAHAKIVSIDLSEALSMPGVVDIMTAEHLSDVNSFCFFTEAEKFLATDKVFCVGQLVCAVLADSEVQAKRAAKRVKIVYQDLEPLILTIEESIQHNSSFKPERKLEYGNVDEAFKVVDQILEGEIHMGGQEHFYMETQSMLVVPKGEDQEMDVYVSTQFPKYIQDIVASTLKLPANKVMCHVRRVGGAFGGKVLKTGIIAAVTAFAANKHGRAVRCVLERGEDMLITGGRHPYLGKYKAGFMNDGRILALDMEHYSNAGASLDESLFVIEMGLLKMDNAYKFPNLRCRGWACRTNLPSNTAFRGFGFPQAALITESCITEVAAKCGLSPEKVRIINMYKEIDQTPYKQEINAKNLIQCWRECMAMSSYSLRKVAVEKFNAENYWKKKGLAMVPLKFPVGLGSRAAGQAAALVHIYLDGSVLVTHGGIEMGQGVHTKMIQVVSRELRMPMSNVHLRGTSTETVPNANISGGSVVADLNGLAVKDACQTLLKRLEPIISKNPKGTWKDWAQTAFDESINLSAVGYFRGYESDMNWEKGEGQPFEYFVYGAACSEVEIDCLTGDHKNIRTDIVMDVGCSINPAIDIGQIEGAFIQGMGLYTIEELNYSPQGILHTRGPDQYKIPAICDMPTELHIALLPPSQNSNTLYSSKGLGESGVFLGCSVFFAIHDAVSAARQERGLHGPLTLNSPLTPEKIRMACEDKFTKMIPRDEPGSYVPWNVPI
- MEASUREMENT PROTOCOL: Substrate activity at aldehyde oxidase in human liver cytosol assessed as enzyme-mediated drug uptake by mass spectrophotometric analysis
- Format: ADME, subcellular
MEASURED PROPERTY: K

mol_smiles=c1ccc2nccnc2c1 measured_target="Aldehyde oxidase (Homo sapiens, UniProt Q06278)" observed="4.7 to 5.1"
mol_smiles=c1ccc2cnncc2c1 measured_target="Aldehyde oxidase (Homo sapiens, UniProt Q06278)" observed="4.7 to 5.1"

---

- MEASUREMENT PROTOCOL: Clearance in human plasma
- Format: ADME, cell-free
MEASURED PROPERTY: clearance

mol_smiles=Cn1cc(-c2ccc3nnc(C(F)(F)c4ccc5ncccc5c4)n3n2)cn1 observed="12 mL/min/kg"

---

// values below are reported K
- MEASURED TARGET: Aldehyde oxidase 1 (Rattus norvegicus)
- Sequence (Q9Z0U5 whole entry): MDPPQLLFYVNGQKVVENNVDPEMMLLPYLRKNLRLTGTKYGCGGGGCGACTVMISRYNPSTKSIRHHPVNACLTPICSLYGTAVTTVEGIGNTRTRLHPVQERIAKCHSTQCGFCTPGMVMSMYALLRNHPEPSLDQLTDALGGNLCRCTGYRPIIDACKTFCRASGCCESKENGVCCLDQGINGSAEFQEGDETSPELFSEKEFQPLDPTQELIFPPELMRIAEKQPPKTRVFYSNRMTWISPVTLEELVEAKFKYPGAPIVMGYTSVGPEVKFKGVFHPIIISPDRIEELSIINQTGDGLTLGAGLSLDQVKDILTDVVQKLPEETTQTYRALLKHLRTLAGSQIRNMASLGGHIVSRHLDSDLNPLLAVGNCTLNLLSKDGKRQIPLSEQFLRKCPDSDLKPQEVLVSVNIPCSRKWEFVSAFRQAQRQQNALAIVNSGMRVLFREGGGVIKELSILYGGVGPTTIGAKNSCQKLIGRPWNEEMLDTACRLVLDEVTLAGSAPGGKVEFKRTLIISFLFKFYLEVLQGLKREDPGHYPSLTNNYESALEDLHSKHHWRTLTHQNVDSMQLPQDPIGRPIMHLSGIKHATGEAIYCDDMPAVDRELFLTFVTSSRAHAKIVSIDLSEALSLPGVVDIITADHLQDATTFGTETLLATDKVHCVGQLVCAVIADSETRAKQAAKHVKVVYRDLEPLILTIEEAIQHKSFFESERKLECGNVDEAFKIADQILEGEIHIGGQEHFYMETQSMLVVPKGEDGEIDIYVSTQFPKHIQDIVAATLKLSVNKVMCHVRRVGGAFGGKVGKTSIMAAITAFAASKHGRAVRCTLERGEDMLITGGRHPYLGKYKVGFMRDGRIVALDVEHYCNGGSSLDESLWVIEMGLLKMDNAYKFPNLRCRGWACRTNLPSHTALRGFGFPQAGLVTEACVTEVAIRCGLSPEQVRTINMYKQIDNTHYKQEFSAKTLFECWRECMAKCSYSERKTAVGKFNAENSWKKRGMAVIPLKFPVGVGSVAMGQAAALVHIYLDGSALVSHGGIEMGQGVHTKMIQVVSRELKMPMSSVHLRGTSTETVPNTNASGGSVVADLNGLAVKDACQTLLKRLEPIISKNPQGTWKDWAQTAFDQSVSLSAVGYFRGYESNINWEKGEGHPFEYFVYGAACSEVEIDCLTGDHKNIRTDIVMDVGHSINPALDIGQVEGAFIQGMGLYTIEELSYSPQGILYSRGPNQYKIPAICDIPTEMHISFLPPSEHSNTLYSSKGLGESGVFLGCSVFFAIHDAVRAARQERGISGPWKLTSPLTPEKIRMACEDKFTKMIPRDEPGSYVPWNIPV
- MEASUREMENT PROTOCOL: Substrate activity at aldehyde oxidase in rat liver cytosol assessed as enzyme-mediated drug uptake by mass spectrophotometric analysis
- Type: ADME, subcellular
MEASURED PROPERTY: K

compound="c1ccc2nccnc2c1 [QUINOXALINE]" observed="4.7 to 5.1"
compound="c1ccc2cnncc2c1 [PHTHALAZINE]" observed="4.7 to 5.1"

---

# K annotations
- MEASURED TARGET: Aldehyde oxidase 1 (Rattus norvegicus)
- MEASUREMENT PROTOCOL: Substrate activity at aldehyde oxidase in rat liver cytosol assessed as enzyme-mediated drug uptake at 1 uM
- Type: ADME, subcellular
MEASURED PROPERTY: K

compound=c1ccc2ncccc2c1 observed="3.6 to 6.1"
compound="N=C(N)NC(=O)c1cnn(-c2cccc3ncccc23)c1C1CC1 [ZONIPORIDE]" observed="3.6 to 6.1"
compound=CCNC(=O)OC1CCN(c2nncc3cc(OC)c(OC)cc23)CC1 observed="3.6 to 6.1"
